B1: KLHDC10 (parent)
chain: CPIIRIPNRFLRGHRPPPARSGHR

Variants of: B1
method: protein stability index of a GFP-peptide fusion (GPS, HEK-293T) (PSI 1-6); higher = more stable;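 also: lentivirally expressed fusions sorted by FACS into six bins by GFP to DsRed ratio, PSI derived from sequencing read proportions per bin multiplied by bin number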
assay-context: c terminus: a fixed tail appended
Reported protein stability index by item:

mutation-descriptor	protein stability index
N8C	1.94
G22R	2.17
A19H	3.04
P16T	2.38
G22Q	1.33
P18M	1.74
I4A	2.7
G22H	1.84
G13F	1.81
H23F	1.52
N8W	2.59
P16Q	2.1
P18K	2.5
P16S	2.12
R12P	1.63
G22S	1.66
P2S	1.31
F10S	2.12
P7C	1.89
C1Y	1.97
P18F	1.62
P18A	1.51
H14R	1.76
P18G	2.95
P18W	1.85
F10C	2.48
F10I	2.46
H14M	1.87
L11Y	2
N8V	2.79
R20T	2.51
C1L	2.68
R15M	1.84
G13I	2.04
